Tested on: TNF-α production by PMBC
Assay: Inhibition of TNF-α production by peripheral blood monocyte cells (PMBC), LPS-stimulated
Assay type: cell-based
Details: 1 ug/mL LPS, 24 hours at 37° C, TNF-α quantified by EIA
Binary call on IC50 with cut-off 300 nM: strictly below means True, and equality or higher means False.

>  <compound>
O=C1COc2cc([N+](=O)[O-])ccc2N1CCCCCB(O)O

>  <assigned-label>
True

$$$$
>  <compound>
O=C1COc2ccccc2N1CCCCCB(O)O

>  <assigned-label>
False

$$$$
>  <compound>
O=C1CSc2ccccc2N1CCCCCB(O)O

>  <assigned-label>
False

$$$$
>  <compound>
CCOC(=O)CC1Sc2ccccc2N(CCCCCB(O)O)C1=O (stereo not drawn)

>  <assigned-label>
False

$$$$
>  <compound>
O=C1CSc2cc(Cl)ccc2N1CCCCCB(O)O

>  <assigned-label>
True

$$$$
>  <compound>
O=C1COc2ccc(F)cc2N1CCCCCB(O)O

>  <assigned-label>
True

$$$$

Sourced from patent US20080269204A1
